Values from patent US20260206761A1

test system: adult brown dog ticks (Rhipicephalus sanguineus); test: Rhipicephalus sanguineus in-vitro contact test, adult brown dog ticks; assay type: in vivo; conditions: application rate 5 μg/cm^2 (=500 g/ha), after 48 hours, read-out: activity (efficacy: ticks dead or moribund)
VALUE_KIND: pest or weed control at 5 µg/cm2, 500 g/ha (%)
Report as a plain number; the unit % is understood.

Give its pest or weed control at 5 µg/cm2, 500 g/ha value. Item: C[C@H](NC(=O)c1cc(Cl)cc(C2(C#N)CC2)c1)c1nc(C2CC2)nn1-c1ccc(C#N)cn1 80

Give its pest or weed control at 5 µg/cm2, 500 g/ha value. Item: Cc1nc([C@H](C)NC(=O)c2cc(Cl)nn2C)n(-c2ccc(C#N)cn2)n1 80

Give its pest or weed control at 5 µg/cm2, 500 g/ha value. Item: C[C@H](NC(=O)c1cc(Br)cc(S(C)(=O)=O)c1)c1ncnn1-c1ccc(Cl)cn1 100

Give its pest or weed control at 5 µg/cm2, 500 g/ha value. Item: COc1nc([C@H](C)NC(=O)c2cc(C(F)F)cc(C3CC3)c2)n(-c2ccc(C#N)cn2)n1 80

Give its pest or weed control at 5 µg/cm2, 500 g/ha value. Item: CC(NC(=O)c1cc(OC(F)(F)F)cc(C2CC2)c1)c1nc(I)nn1-c1ccc(C#N)cn1 (centres unmarked) 80

Give its pest or weed control at 5 µg/cm2, 500 g/ha value. Item: C[C@H](NC(=O)c1cc(F)cc(S(C)(=O)=O)c1)c1nc(C2CC2)nn1-c1ccc(Cl)cn1 100

Give its pest or weed control at 5 µg/cm2, 500 g/ha value. Item: Cc1nc([C@H](C)NC(=O)c2cc(OC(F)(F)F)cc(C3CC3)c2)n(-c2ccc(C#N)cn2)n1 100

Give its pest or weed control at 5 µg/cm2, 500 g/ha value. Item: C[C@H](NC(=O)c1cc(C2CC2)cc(C2CC2)c1)c1ncnn1-c1ccc(C#N)cn1 100

---

For each entry below, report its mortality at 4 mg/m2 value.
test system: Aedes aegypti strain MONHEIM; experiment: Aedes aegypti test (AEDSAE surface treatment & contact assay); assay type: in vivo; conditions: surface concentration 4 mg/m^2, exposure 30 minutes, 24 hours after contact, read-out: efficacy (mortality)

Give its mortality at 4 mg/m2 value. Item: C[C@H](NC(=O)c1cc(C(F)(F)F)cc(S(=O)(=O)C2CC2)c1)c1ncnn1-c1ccc(Cl)cn1 80 to 100%

Give its mortality at 4 mg/m2 value. Item: Cc1nc([C@H](C)NC(=O)c2cc(Cl)cc(C3(C#N)CC3)c2)n(-c2ccc(C#N)cn2)n1 80 to 100%

Give its mortality at 4 mg/m2 value. Item: C[C@H](NC(=O)c1cc(Cl)cc(S(=O)(=O)C2CC2)c1)c1nc(C2CC2)nn1-c1ncc(Cl)cn1 80 to 100%

Give its mortality at 4 mg/m2 value. Item: C[C@H](NC(=O)c1cncc(C2CC2)c1)c1ncnn1-c1ccc(C#N)cn1 80 to 100%

Give its mortality at 4 mg/m2 value. Item: CCS(=O)(=O)c1cc(C(=O)N[C@@H](C)c2ncnn2-c2ccc(C#N)cn2)cc(C(F)(F)F)c1 80 to 100%

Give its mortality at 4 mg/m2 value. Item: C[C@H](NC(=O)c1cc(Cl)cc(S(C)(=O)=O)c1)c1nc(C2CC2)nn1-c1ccc(C#N)cn1 80 to 100%

Give its mortality at 4 mg/m2 value. Item: C[C@H](NC(=O)c1cc(Cl)cc(S(=O)(=O)C(F)F)c1)c1ncnn1-c1ccc(Cl)cn1 80 to 100%

Give its mortality at 4 mg/m2 value. Item: C[C@H](NC(=O)c1cc(Cl)cc(C2(C#N)CC2)c1)c1ncnn1-c1cc(C#N)ccn1 80 to 100%

Give its mortality at 4 mg/m2 value. Item: C[C@H](NC(=O)c1cc(C2CC2)cc(C(F)(F)F)c1)c1ncnn1-c1ccc(C#N)cn1 80 to 100%

Give its mortality at 4 mg/m2 value. Item: C[C@H](NC(=O)c1cc(C#N)cc([S+](C)[O-])c1)c1ncnn1-c1ccc(C#N)cn1 (stereo partly shown) 80 to 100%

Give its mortality at 4 mg/m2 value. Item: C[C@H](NC(=O)c1cc(C#N)cc(S(C)(=O)=O)c1)c1ncnn1-c1ccc(C#N)cn1 80 to 100%

Give its mortality at 4 mg/m2 value. Item: C[C@H](NC(=O)c1cc(C#N)cc(C2CC2)c1)c1ncnn1-c1ncccn1 80 to 100%

Give its mortality at 4 mg/m2 value. Item: Cc1nc([C@H](C)NC(=O)c2cc(C(F)(F)F)cc(C3(C#N)CC3)c2)n(-c2ccc(C#N)cn2)n1 80 to 100%

Give its mortality at 4 mg/m2 value. Item: C[C@H](NC(=O)c1cc(OC(F)(F)F)cc(C2CC2)c1)c1ncnn1-c1ccc(Cl)cn1 80 to 100%

Give its mortality at 4 mg/m2 value. Item: C[C@H](NC(=O)c1cc(C(F)(F)F)cc(S(C)(=O)=O)c1)c1ncnn1-c1ccc(Cl)cn1 80 to 100%

Give its mortality at 4 mg/m2 value. Item: C[C@H](NC(=O)c1cc(Cl)cc(S(=O)(=O)C(F)F)c1)c1ncnn1-c1ncccn1 80 to 100%
